biological target: Human GPR35 (Homo sapiens); construct: Tango receptor fusion (protease cleavage site + Gal4-VP16 transcription factor); host or cells: Jump-In Tango U2OS cells; assay: Beta-Arrestin Assay; assay type: cell-based; conditions: Human GPR35 expressing JumpIn 294S Tango U2OS cells; compounds overnight; LiveBLAzer-FRET B/G (CCF4-AM) readout
Sequence (Q9HC97 whole entry, the tested form may be a part): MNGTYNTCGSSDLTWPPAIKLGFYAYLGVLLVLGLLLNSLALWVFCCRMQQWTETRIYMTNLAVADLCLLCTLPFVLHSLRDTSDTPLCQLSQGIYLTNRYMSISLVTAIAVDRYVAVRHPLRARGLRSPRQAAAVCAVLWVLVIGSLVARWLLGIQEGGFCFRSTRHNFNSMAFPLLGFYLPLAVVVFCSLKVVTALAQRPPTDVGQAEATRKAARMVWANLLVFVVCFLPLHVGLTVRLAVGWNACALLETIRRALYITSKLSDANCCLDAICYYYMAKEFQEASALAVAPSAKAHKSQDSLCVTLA
pEC50: −log10 of the molar value.
Measured pEC50 by item

compound | pEC50
CCOc1cc(-c2ccc(CO)cc2)ccc1-c1nc2[nH]nnc2c(=O)[nH]1 [Compound 105] | ≥ 6.00
CCOc1cc(-c2cccc(CO)c2)ccc1-c1nc2[nH]nnc2c(=O)[nH]1 [Compound 104] | ≥ 6.00
CCOc1cc(-c2cccc(CCC(N)=O)c2)ccc1-c1nc2[nH]nnc2c(=O)[nH]1 [Compound 119] | 5.00 to 6.00
CCOc1cc(-c2cccc(/C=C3\SC(=O)NC3=O)c2)ccc1-c1nc2[nH]nnc2c(=O)[nH]1 [Compound 120] | ≥ 6.00
